B1: mRNA-splicing (parent)
chain: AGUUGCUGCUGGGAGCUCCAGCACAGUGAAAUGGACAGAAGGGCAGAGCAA

Variants of: B1
test-description: exon inclusion enrichment index; higher = more inclusion; WT1 exon 5 minigene, HEK293
Criterion: exon inclusion enrichment index meeting or surpassing 0.7. Met: Y. Not met: N.

(Q) Hello, I need to know if AGUUAGGGAUGGGAGUCCCAGCACAGUGAAAUGGACAGAAGGGCAGAGCAA [G5A C6G U7G C9A C16U U17C] has measured exon inclusion enrichment index not below 0.7. Thanks!
(A) N

(Q) How about this variant: AGUUAUAUAUGGGAGCUUAAGCACAGUGAAAUGGACAGAAGGGCAGAGCAA [G5A C6U U7A G8U C9A C18U C19A]
(A) N

(Q) How about this variant: AGUUCGCCACGGGAGCUCCAGCACAGUGAAAUGGACAGAAGGGCAGAGCAA [G5C C6G U7C G8C C9A U10C]
(A) Y

(Q) How about this variant: AGUUCACACAGGGAGCUCCAGCACAGUGAAAUGGAUCGAAGGGCAGAGCAA [G5C C6A U7C G8A U10A C36U A37C]
(A) N

(Q) How about this variant: AGUUCGCGCCGGGAGCUCCAGCACAGAGAAAUGGACAGAAGGGCAGAGCAA [G5C C6G U7C U10C U27A]
(A) Y

(Q) How about this variant: AGUUCACACAGGGAGCUCCAGCACAGUGAAAUGGACAGAAGGGCAGUUCAA [G5C C6A U7C G8A U10A A47U G48U]
(A) N

(Q) How about this variant: AGUUAUAUAUGGGAGCUCCAGCACAGACAAAUGGACAGAAGGGCAGAGCAA [G5A C6U U7A G8U C9A U27A G28C]
(A) N

(Q) How about this variant: AGUUAGGGAUGGGAGCUCCAGCACAGUGAAAUGGACAGAAGGGCAGACCAA [G5A C6G U7G C9A G48C]
(A) N

(Q) How about this variant: AGUUACCACCGGGAGCUCCAGCACAAGGAAAUGGACAGAAGGGCAGAGCAA [G5A U7C G8A U10C G26A U27G]
(A) Y

(Q) How about this variant: AGUUUCUUUUGGGAGCUCCAGCACAGUGAAAUGGUAAGAAGGGCAGAGCAA [G5U G8U C9U A35U C36A]
(A) N

(Q) How about this variant: AGUUGACGACGGGAGCUCCAGCACAGUGAAGGGGACAGAAGGGCAGAGCAA [C6A U7C C9A U10C A31G U32G]
(A) Y

(Q) How about this variant: AGUUGACGACGGGAGCUCCAGCACAGUGAUUUGGACAGAAGGGCAGAGCAA [C6A U7C C9A U10C A30U A31U]
(A) Y

(Q) How about this variant: AGUUACCACCGGGGACUCCAGCACAGUGAAAUGGACAGAAGGGCAGAGCAA [G5A U7C G8A U10C A14G G15A]
(A) Y

(Q) How about this variant: AGUUCGGGCCGGGAGCUCCAGCACAGUGAAAUGGACAGAAGGGCAGAGCAA [G5C C6G U7G U10C]
(A) Y

(Q) How about this variant: AGUUCUUCUCGGGAGCUCCAGCACAGUGAAAUGGCGAGAAGGGCAGAGCAA [G5C C6U G8C C9U U10C A35C C36G]
(A) Y

(Q) How about this variant: AGUUCGCGCCGGGAGCUCCAGCACAGUGAAAUGGACAGAAGGGCAGUUCAA [G5C C6G U7C U10C A47U G48U]
(A) Y

(Q) How about this variant: AGUUAUAUAUGGGAGCUCCAGCACAGUGAAAUGGGGAGAAGGGCAGAGCAA [G5A C6U U7A G8U C9A A35G C36G]
(A) N

(Q) How about this variant: AGUUAUAUAUGGGACCUCCAGCACAGUGAAAUGGACAGAAGGGCAGAGCAA [G5A C6U U7A G8U C9A G15C]
(A) N

(Q) How about this variant: AGUUCGCGCCGGGAGCUCCAGCACAGUGAAAAAGACAGAAGGGCAGAGCAA [G5C C6G U7C U10C U32A G33A]
(A) Y

(Q) How about this variant: AGCGGACGACGGGAGCUCCAGCACAGUGAAAUGGACAGAAGGGCAGAGCAA [U3C U4G C6A U7C C9A U10C]
(A) Y

(Q) How about this variant: AGUUGACGACGGGAGCUCCAGCACAGUGAAAUGGACAGAAGUUCAGAGCAA [C6A U7C C9A U10C G42U G43U]
(A) Y

(Q) How about this variant: AGUUAGGGAUGGUGGCUCCAGCACAGUGAAAUGGACAGAAGGGCAGAGCAA [G5A C6G U7G C9A G13U A14G]
(A) N

(Q) How about this variant: AGUUCGUACAGGGAGCUCCAGCACAGUGAAAUGGACAGAAGGGCAGAGCAA [G5C C6G G8A U10A]
(A) N

(Q) How about this variant: AGUUCUUCUCGGGAGCUCCAGCAAUGUGAAAUGGACAGAAGGGCAGAGCAA [G5C C6U G8C C9U U10C C24A A25U]
(A) Y

(Q) How about this variant: AGUUGAAGAAGGGAGCUCCAGCACAGUGAAAUGGACAGAAUAGCAGAGCAA [C6A U7A C9A U10A G41U G42A]
(A) N

(Q) How about this variant: AGUUUCUUUUGGGAGCUCCAGCACAGUGAAAUGGUCAGAAGGGCAGAGCAA [G5U G8U C9U A35U]
(A) N

(Q) How about this variant: AGUUUCUUUUGGGAGCUCCAGCACAGUGAAAUGCCCAGAAGGGCAGAGCAA [G5U G8U C9U G34C A35C]
(A) N

(Q) How about this variant: AGUUAGGGAUGGGAGCUCGCGCACAGUGAAAUGGACAGAAGGGCAGAGCAA [G5A C6G U7G C9A C19G A20C]
(A) N

(Q) How about this variant: AGUUGAAGAAGGGAGCUCCAGAGCAGUGAAAUGGACAGAAGGGCAGAGCAA [C6A U7A C9A U10A C22A A23G]
(A) Y

(Q) How about this variant: AGUUCUUCUCGCUAGCUCCAGCACAGUGAAAUGGACAGAAGGGCAGAGCAA [G5C C6U G8C C9U U10C G12C G13U]
(A) N

(Q) How about this variant: AGUUGAAGAAGGGAGCUCCAGCACAGUGAAAUGGACACGAGGGCAGAGCAA [C6A U7A C9A U10A G38C A39G]
(A) Y

(Q) How about this variant: AGUUAGGGAUGGGAGCUCCAGCACAGUGAAAUGGACAGAAGUGCAGAGCAA [G5A C6G U7G C9A G42U]
(A) N

(Q) How about this variant: AGUUUAUCUCGGGAGCUCCAGCACAGUGAAAUGGACAGAAGGGCAGAGCAA [G5U C6A G8C C9U U10C]
(A) N

(Q) How about this variant: AGUUACCACCGGGAGCUCCAGCACAUUGAAAUGGACAGAAGGGCAGAGCAA [G5A U7C G8A U10C G26U]
(A) Y

(Q) How about this variant: AGUUAGGGAUGGGAGCUCCAGCAUGGUGAAAUGGACAGAAGGGCAGAGCAA [G5A C6G U7G C9A C24U A25G]
(A) N

(Q) How about this variant: AGUUGAAGAAGGGAGCUCCAGCACAGUGAAAUGGUCAGAAGGGCAGAGCAA [C6A U7A C9A U10A A35U]
(A) N

(Q) How about this variant: AGUUGAAGAAGGGAGCUCCGCCACAGUGAAAUGGACAGAAGGGCAGAGCAA [C6A U7A C9A U10A A20G G21C]
(A) Y
